Some compounds, each annotated with its measured EC50.
# target: SST2 (Homo sapiens, UniProt P30874)
# Construct: host or cells: PathHunter CHO-K1 SST2 cells
# Sequence (P30874 whole entry): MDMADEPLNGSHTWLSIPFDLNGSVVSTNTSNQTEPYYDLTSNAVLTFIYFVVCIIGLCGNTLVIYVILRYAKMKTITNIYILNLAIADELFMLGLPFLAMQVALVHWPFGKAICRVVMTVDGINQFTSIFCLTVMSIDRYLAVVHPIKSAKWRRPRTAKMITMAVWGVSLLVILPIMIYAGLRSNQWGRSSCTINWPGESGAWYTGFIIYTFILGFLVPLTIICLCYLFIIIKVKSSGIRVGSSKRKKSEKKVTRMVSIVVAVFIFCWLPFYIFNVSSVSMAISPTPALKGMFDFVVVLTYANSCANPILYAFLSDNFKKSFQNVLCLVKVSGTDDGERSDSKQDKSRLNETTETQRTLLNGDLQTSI
# test: PathHunter CHO-K1 SST2 Internalization Assay
# Format: cell-based
# measurement parameters: PathHunter CHO-K1 SST2 cells; 90 min at 37 C; luminescence; read-out: Internalization EC50

{"compound": "CC[C@H](C)[C@@H]([C@@H](CC(=O)N1CCC[C@H]1[C@H](OC)[C@@H](C)C(=O)N[C@H](C)[C@@H](O)c1ccccc1)OC)N(C)C(=O)[C@@H](NC(=O)[C@H](C(C)C)N(C)C(=O)OCc1ccc(NC(=O)[C@H](CCCNC(N)=O)NC(=O)[C@@H](NC(=O)c2cc(NCCCCCC(=O)NCCNc3ncc(-c4cc(C)cc(F)c4)c(N4CCC(N)CC4)c3-c3nc4ccc(F)cc4[nH]3)cc(C(=O)NCC(=O)O)c2)C(C)C)cc1)C(C)C [Compound 167]", "EC50, nM": 13}
{"compound": "CC[C@H](C)[C@@H]([C@@H](CC(=O)N1CCC[C@H]1[C@H](OC)[C@@H](C)C(=O)N[C@H](C)[C@@H](O)c1ccccc1)OC)N(C)C(=O)[C@@H](NC(=O)C(C(C)C)N(C)C(=O)OCc1ccc(NC(=O)[C@H](CCCNC(N)=O)NC(=O)[C@@H](NC(=O)CCOCCC(=O)NCCNc2ncc(-c3cc(C)cc(F)c3)c(N3CCC(N)CC3)c2-c2nc3ccc(Cl)cc3[nH]2)C(C)C)c(O[C@@H]2O[C@H](C(=O)N3CCN(C)CC3)[C@@H](O)[C@H](O)[C@H]2O)c1)C(C)C (stereo partly drawn) [Compound 226]", "EC50, nM": 9.3}
{"compound": "CC[C@H](C)[C@@H]([C@@H](CC(=O)N1CCC[C@H]1[C@H](OC)[C@@H](C)C(=O)N[C@H](C)[C@@H](O)c1ccccc1)OC)N(C)C(=O)[C@@H](NC(=O)[C@H](C(C)C)N(C)C(=O)OCc1ccc(NC(=O)[C@H](CCCNC(N)=O)NC(=O)[C@@H](NC(=O)CCOCCOCCOCCOCCC(=O)NCCNc2ncc(-c3cc(C)cc(F)c3)c(N3CCC(N)CC3)c2-c2nc3ccc(Cl)cc3[nH]2)C(C)C)cc1C(=O)NCC(=O)O)C(C)C [Compound 86]", "EC50, nM": 4.1}
{"compound": "CC[C@H](C)[C@@H]([C@@H](CC(=O)N1CCC[C@H]1[C@H](OC)[C@@H](C)C(=O)N[C@H](C)[C@@H](O)c1ccccc1)OC)N(C)C(=O)[C@@H](NC(=O)[C@H](C(C)C)N(C)C(=O)OCc1ccc(NC(=O)[C@H](CCCNC(N)=O)NC(=O)[C@@H](NC(=O)CCCC(=O)N(C)CC(=O)NCCNc2ncc(-c3cc(C)cc(F)c3)c(N3CCC(N)CC3)c2-c2nc3ccc(Cl)cc3[nH]2)C(C)C)c(O[C@@H]2O[C@H](C(=O)O)[C@@H](O)[C@H](O)[C@H]2O)c1)C(C)C [Compound 56]", "EC50, nM": 68}
{"compound": "CC[C@H](C)[C@@H]([C@@H](CC(=O)N1CCC[C@H]1[C@H](OC)[C@@H](C)C(=O)N[C@H](C)[C@@H](O)c1ccccc1)OC)N(C)C(=O)[C@@H](NC(=O)[C@H](C(C)C)N(C)C(=O)OCc1ccc(NC(=O)[C@H](CCCNC(N)=O)NC(=O)[C@@H](NC(=O)C[C@@H](N)C(=O)NCCOCCC(=O)NCCNc2ncc(-c3cc(C)cc(F)c3)c(N3CCC(N)CC3)c2-c2nc3ccc(Cl)cc3[nH]2)C(C)C)c(O[C@@H]2O[C@H](C(=O)O)[C@@H](O)[C@H](O)[C@H]2O)c1)C(C)C [Compound 92]", "EC50, nM": 2.5}
{"compound": "CC[C@H](C)[C@@H]([C@@H](CC(=O)N1CCC[C@H]1[C@H](OC)[C@@H](C)C(=O)N[C@H](C)[C@@H](O)c1ccccc1)OC)N(C)C(=O)[C@@H](NC(=O)[C@H](C(C)C)N(C)C(=O)OCc1ccc(NC(=O)[C@@H](CCCNC(N)=O)NC(=O)[C@@H](NC(=O)CCOCCC(=O)NCCNc2ncc(-c3cc(C)cc(F)c3)c(N3CCC(N)CC3)c2-c2nc3ccc(Cl)cc3[nH]2)C(C)C)c(O[C@H]2[C@H](O)[C@@H](O)[C@H](O)[C@@H](C(=O)O)[C@H]2O)c1)C(C)C [Compound 241]", "EC50, nM": 4.6}
{"compound": "CC[C@H](C)[C@@H]([C@@H](CC(=O)N1CCC[C@H]1[C@H](OC)[C@@H](C)C(=O)N[C@H](C)[C@@H](O)c1ccccc1)OC)N(C)C(=O)[C@@H](NC(=O)[C@H](C(C)C)N(C)C(=O)OCc1ccc(NC(=O)[C@H](CCCNC(N)=O)NC(=O)[C@@H](NC(=O)CCOCCC(=O)NCCNc2ncc(-c3cc(C)cc(F)c3)c(N3CCC(N)CC3)c2-c2nc3ccc(Cl)cc3[nH]2)C(C)C)c(OCCO)c1)C(C)C [Compound 12]", "EC50, nM": 6.9}
{"compound": "CC[C@H](C)[C@@H]([C@@H](CC(=O)N1CCC[C@H]1[C@H](OC)[C@@H](C)C(=O)N[C@H](C)[C@@H](O)c1ccccc1)OC)N(C)C(=O)[C@@H](NC(=O)[C@H](C(C)C)N(C)C(=O)OCc1ccc(NC(=O)C(CCCNC(N)=O)NC(=O)[C@@H](NC(=O)c2cc(NC(=O)CCOCCC(=O)N(C)CC(=O)NCCNc3ncc(-c4cc(C)cc(F)c4)c(N4CCC(N)CC4)c3-c3nc4ccc(Cl)cc4[nH]3)cc(C(=O)NCC(=O)NCCN)c2)C(C)C)cc1)C(C)C (stereo partly drawn) [Compound 175]", "EC50, nM": 18}
{"compound": "CC[C@H](C)[C@@H]([C@@H](CC(=O)N1CCC[C@H]1[C@H](OC)[C@@H](C)C(=O)N[C@H](C)[C@@H](O)c1ccccc1)OC)N(C)C(=O)[C@@H](NC(=O)[C@H](C(C)C)N(C)C(=O)OCc1ccc(NC(=O)[C@H](C)NC(=O)[C@@H](NC(=O)[C@@H](CS(=O)(=O)O)NC(=O)CCOCCC(=O)NCCNc2ncc(-c3cc(C)cc(F)c3)c(N3CCC(N)CC3)c2-c2nc3ccc(Cl)cc3[nH]2)C(C)C)c(O[C@@H]2O[C@H](C(=O)NCCN)[C@@H](O)[C@H](O)[C@H]2O)c1)C(C)C [Compound 41]", "EC50, nM": 9}
